# Protocol description: Plasmodium falciparum growth inhibition, primary screen, strain 3D7, DAPI fluorescence, 100 nL (AID 1184);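 note: parasites grown inside human red blood cells in medium with human serum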
# Measurement context: P. falciparum 3D7 growth, 3 d, higher = more signal
# z-score >= 0.5 gives Satisfied, anything below gives Not satisfied

Molecule	Qualitative label
O=C1[C@H]2[C@H]3[C@H](O)[C@H](O)CC(=NOCc4ccccc4)[C@H]3CC[C@H]2C(=O)N1Cc1ccccc1	Not satisfied
COC(=O)[C@H](C)NC(=O)CCC1CC(OC(=O)NCCc2ccc(F)cc2)CC2(CCCC(COC(=O)NCCCN3CCCC3=O)O2)O1 (stereo partly drawn)	Not satisfied
CC(=O)OC[C@H]1O[C@H](C#CC(C)(C)C)C=C[C@@H]1OC(C)=O	Satisfied
CCOC(=O)[C@H](CC(C)C)NC(=O)CCC1CC(OC(=O)NCc2cccc3ccccc23)CC2(CCCC(COC(=O)NCc3ccccc3)O2)O1 (stereo partly drawn)	Not satisfied
CCOC(=O)CCN1C(=O)[C@H]2[C@H]3[C@H](O)[C@H](O)CC(=NNC(=O)OCC)[C@@H]3CC[C@H]2C1=O	Satisfied
CC(C)C(=O)N[C@@H]1CCCN1C(=O)C=Cc1ccccc1	Satisfied
C[C@@H]1CC[C@@H](C(=O)O)N[C@H]1c1ccc(-c2ccco2)cc1	Not satisfied
C=C(C)C(=O)OC[C@@H]1CN2[C@@H](CC[C@@H](C)[C@@H]2c2ccc(Br)cc2)C(=O)O1	Satisfied
CC(C)=NOC[C@@H](O)COCc1ccco1	Satisfied
CC(C)=CCCC(C)=CCON=C1C[C@@H](O)[C@@H](O)[C@@H]2[C@@H]3C(=O)N([C@@H](C)c4ccccc4)C(=O)[C@@H]3CC[C@H]12	Not satisfied
CCOC(=O)NN=C1C[C@@H](O)[C@@H](O)[C@@H]2[C@@H]3C(=O)N(Cc4ccc5c(c4)OCO5)C(=O)[C@@H]3CC[C@@H]12	Not satisfied
CCCNC(=O)OC[C@H]1O[C@H](CCON=C(C)CCC(=O)OC[C@H]2O[C@H](C#Cc3ccccc3)C=C[C@@H]2Oc2ccc(C)cc2)C=C[C@@H]1Oc1ccc(OC)cc1	Not satisfied
COc1ccc(COC(=O)NN=C2C[C@@H](O)[C@@H](O)[C@@H]3[C@@H]4C(=O)N(C(C)(C)C)C(=O)[C@@H]4CC[C@H]23)cc1	Not satisfied
CCCNC(=O)OC[C@H]1O[C@H](CCON=C(C)CCN2CCc3nc(-c4ccccc4)c(-c4ccccc4)cc3C2)C=C[C@@H]1Oc1ccc(OC)cc1	Not satisfied
CC(C)=NO[C@@H](C)c1cc(-c2c(C)cc(C)cc2C)no1	Not satisfied
CC(C)CON=C1C[C@@H](O)[C@@H](O)[C@@H]2[C@@H]3C(=O)N(c4cccc(Oc5ccccc5)c4)C(=O)[C@@H]3CC[C@H]12	Not satisfied
CCOC(=O)[C@H](Cc1ccccc1)NC(=O)CCC1CC(OC(=O)NCc2cccc3ccccc23)CC2(CCCC(COC(=O)NCCCN3CCCC3=O)O2)O1 (stereo partly drawn)	Not satisfied
CO[C@H]1COC(=O)[C@H](C)NC(=O)CC=C[C@@H](C)[C@H](OC)COC(=O)CC=C[C@@H]1C	Not satisfied
CCN1C(=O)[C@H]2[C@H]3[C@H](O)[C@H](O)CC(=NOC)[C@@H]3CC[C@H]2C1=O	Satisfied
Cc1ccc(S(=O)(=O)N[C@H]2COC(=O)[C@@H](C)COC(=O)[C@H](C)NC(=O)CC=C[C@H]2C)cc1	Not satisfied
CO[C@@H]1C=CCC(=O)N2CCC[C@H]2C(=O)OC[C@H](C)C(=O)OC[C@H]1C	Not satisfied
C[C@@H](ON=C1[C@H]2CCn3c(=O)n(-c4ccccc4)c(=O)n3[C@H]2[C@H](O)[C@@H]2O[C@H]12)c1cn([C@H](CO)Cc2ccccc2)nn1	Not satisfied
